All values here come from PubChem BioAssay.

- Tested on: R275C/beta2Delta
- test.summary: BK channel mutant inhibitors and activators – cell-based, U2OS BacMam, thallium flux, beta subunits, selectivity assay, profiling panel (AID 1259406);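 also: initial slope of Thallos dye fluorescence rise after thallium is added; log ratio against the mean of 0.3% DMSO vehicle wells on the same plate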
- test.context: U2OS BacMam BK variants, at 30 µM
Activity calls are given as the source filed them.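 The calls were made as follows: active = thallium flux through the channel raised or lowered by more than 3 SD from vehicle-only wells, actives on both sides; inactive = the rest.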
compounds and their reported log fold change Tl+ flux

Completed entries (count: 2):
- compound: "CCc1nn(CCCN2CCN(c3cccc(Cl)c3)CC2)c(=O)n1CCOc1ccccc1"
  log fold change Tl+ flux: "0.156 (active)"
- compound: "CC(=O)NS(=O)(=O)c1ccc(N)cc1"
  log fold change Tl+ flux: "-0.00501 (inactive)"

I have this compound here, COC(=O)CCc1ccc(OCC(O)CNC(C)C)cc1 (stereo unspecified) , and I need its recorded log fold change Tl+ flux.
0.0115 (inactive)

# log fold change Tl+ flux lookup, item COCc1c(C(C)C)nc(C(C)C)c(/C=C/[C@@H](O)C[C@@H](O)CC(=O)O)c1-c1ccc(F)cc1
0.192 (active)

Reported log fold change Tl+ flux, compound CC[N+](C)(CC)CCOC(=O)C(O)(c1ccccc1)C1CCCCC1 (stereo unspecified) : ____
0.0312 (inactive)

GET /values?readout=log fold change Tl+ flux&item= Oc1ccc(C2CNCCc3c2cc(O)c(O)c3Cl)cc1 (stereo unspecified)
0.0656 (inactive)

Looking for the measured log fold change Tl+ flux of CCCN1CCCC[C@H]1C(=O)Nc1c(C)cccc1C , can you help?
0.0105 (inactive)

Please give the measured log fold change Tl+ flux for this compound: CCCc1c(OCCCCc2nn[nH]n2)ccc(C(C)=O)c1O
0.193 (active)

Reported log fold change Tl+ flux, compound CCc1c(C)[nH]c2c1C(=O)C(CN1CCOCC1)CC2 (stereo unspecified) : ____
0.0494 (inactive)

Report log fold change Tl+ flux for CCOC(=O)O[C@]1(C(=O)OCCl)CC[C@H]2[C@@H]3CCC4=CC(=O)C=C[C@]4(C)[C@H]3[C@@H](O)C[C@@]21C please.
0.00232 (inactive)

So what does the record say about log fold change Tl+ flux for CNS(=O)(=O)Cc1ccc2[nH]cc(CCN(C)C)c2c1 ?
0.00098 (inactive)

----------
- test.summary: EMT-state selective cytotoxicity in co-culture – imaging, PC-3E GFP, TEM4-18 mCherry, primary screen (AID 1345086);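 also: normalised mesenchymal count divided by normalised epithelial count so high means epithelial killing; cells exposed to compound for 72 h before imaging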
- test.context: PC-3E GFP / TEM4-18 mCherry co-culture, imaging cell counts; at 1 µM; actives lie on both sides; counts scaled to control wells, 1 = unselective
# label = met if red/green cell ratio (normalised) < 1 else not met

Previously resolved entries follow.
- compound: "Oc1cccc(O)c1"
  discrete.label: "not met"
- compound: "Cc1c(NC(=O)c2cccnc2)c(=O)n(-c2ccccc2)n1C"
  discrete.label: "not met"
- compound: "CN(C)/N=N/c1nc[nH]c1C(N)=O"
  discrete.label: "met"
- compound: "CS(=O)(=O)c1ccc([C@@H](O)[C@@H](CO)NC(=O)C(Cl)Cl)cc1"
  discrete.label: "met"
- compound: "Cc1cc(C(C)(C)C)cc(C)c1CC1=NCCN1"
  discrete.label: "not met"

red/green cell ratio (normalised) under 1? Item: CO[C@@]1(NC(=O)C(C(=O)O)c2ccc(O)cc2)C(=O)N2C(C(=O)O)=C(CSc3nnnn3C)CO[C@@H]21 (stereo not given in full)
met

Input O=C(O)/C=C/c1ccc(Cn2ccnc2)cc1 ; condition: red/green cell ratio (normalised) strictly below 1. Does it hold?
not met

Take the compound COc1cc2c(cc1OC)C(=O)C(CC1CCN(Cc3ccccc3)CC1)C2 (stereo not given) and say whether its red/green cell ratio (normalised) is less than 1.
not met

Just wondering, is red/green cell ratio (normalised) of Nc1c(Br)cc(Br)cc1CNC1CCC(O)CC1 (stereo not given) below 1?
met

Field: below-cutoff. Rule: recorded red/green cell ratio (normalised) strictly less than 1. Subject: Nc1ccc(C(=O)Oc2ccccc2)c(O)c1
not met

# strict comparison: is reported red/green cell ratio (normalised) < 1? input = COc1ccnc(CS(=O)c2nc3ccc(OC(F)F)cc3[nH]2)c1OC (stereo not given)
not met

Field: below-cutoff. Rule: recorded red/green cell ratio (normalised) strictly less than 1. Subject: NS(=O)(=O)c1cc2c(cc1Cl)NC(CSCc1ccccc1)=NS2(=O)=O
not met

State whether 1 exceeds red/green cell ratio (normalised) recorded for COc1cc2nc(N3CCN(C(=O)C4COc5ccccc5O4)CC3)nc(N)c2cc1OC (stereo not given) .
met

Strictly below 1 in red/green cell ratio (normalised)? Oc1ccc(Cl)c2cccnc12
not met

Is the reported red/green cell ratio (normalised) for COc1c2occc2c(OC)c2c(=O)cc(C)oc12 strictly below 1?
met

----------
Listed next: entries and their corresponding nuclear beta-catenin stimulation.
- test.summary: Wnt pathway potentiators raising nuclear beta-catenin – imaging, WNT3A-conditioned medium, mouse C2C12, NPC library, primary screen (AID 1117326)
- test.context: stimulation, at 2 µM, stronger effect = higher value
Give just the numeric value; % need not be written.

- substance.smiles: "CN(Cc1cc(Br)cc(Br)c1N)C1CCCCC1"
  nuclear beta-catenin stimulation [%]: -0.5
- substance.smiles: "CC(=O)OCC(=O)[C@@]1(O)[C@H](C)C[C@H]2[C@@H]3CCC4=CC(=O)C=C[C@]4(C)[C@@]3(F)[C@@H](O)C[C@@]21C"
  nuclear beta-catenin stimulation [%]: -2.1
- substance.smiles: "Cc1nc(N)nc(N)c1-c1ccc(Cl)c(Cl)c1"
  nuclear beta-catenin stimulation [%]: 55.1
- substance.smiles: "O=C1c2ccccc2C(=O)C1c1ccccc1"
  nuclear beta-catenin stimulation [%]: 0.6
- substance.smiles: "O=C1c2c(O)cccc2Cc2cccc(O)c21"
  nuclear beta-catenin stimulation [%]: -2

Can you share its nuclear beta-catenin stimulation? I mean this compound: CN1CCC(=C2c3ccccc3CCc3sccc32)CC1
-1.1

Look up nuclear beta-catenin stimulation for this compound: CCOC(=O)C1=C(C)NC(C)=C(C(=O)OCC)C1c1ccccc1/C=C/C(=O)OC(C)(C)C
1.2

Please look up its nuclear beta-catenin stimulation: CNCCCCOc1ccccc1Cc1ccccc1
1.6

----------
- test.summary: growth inhibition, single agents and combos, LFS_MB_2R, cell-based, cisplatin combos, synergistic combos for chromothripsis tumors (AID 1671457);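 also: cells exposed to compound for four days before readout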
- test.context: LFS_MB_2R medulloblastoma cells, measured here: combination with cisplatin, at 5 µM, stronger effect = higher value
Entry flag: true (1) if inhibition reaches -30%; false (0) if it does not.

- molecule: "NC(=O)NO"
  discrete.label: "true (1)"
- molecule: "CC(N)C12CC3CC(CC(C3)C1)C2 (configuration not stated)"
  discrete.label: "false (0)"
- molecule: "CN(C)c1ccc(C(=C2C=CC(=[N+](C)C)C=C2)c2ccc(N(C)C)cc2)cc1"
  discrete.label: "true (1)"

Record O=C(O)CCCCCCCC(=O)O ; criterion: inhibition no lower than -30%. Met?
false (0)

Is inhibition for O=NN(CCCl)C(=O)NCCCl at or above -30%?
true (1)

Hello, I need to know if O=c1c(O)c(-c2ccc(O)c(O)c2)oc2cc(O)cc(O)c12 has measured inhibition not below -30%. Thanks!
true (1)

Evaluate O=C(O)P(=O)(O)O : inhibition at minimum -30%?
true (1)

Check if inhibition >= -30% (inclusive). Item: Cc1ccnc2c1NC(=O)c1cccnc1N2C1CC1
false (0)

----------
- test.summary: growth inhibition, single agents and combos, ICB984, cell-based, cisplatin or BGB combos, synergistic combos for chromothripsis tumors (AID 1671451);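 also: cells exposed for 96 hours before readout; 0% = vehicle DMSO and 100% = killing by high DMSO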
- test.context: ICB984 medulloblastoma cells, drug combinations, BGB IC40 combo, at 0.005 µM, stronger effect = higher value
As shown below, each of these compounds has a reported inhibition value.
Reply with just the number (in %).

Reference set, count: 5
- compound: "O=c1c(O)c(-c2ccc(O)c(O)c2)oc2cc(O)cc(O)c12"
  display.unit: "%"
  obs.value: -3.66
- compound: "Cc1oncc1C(=O)Nc1ccc(C(F)(F)F)cc1"
  display.unit: "%"
  obs.value: -7.12
- compound: "C[C@H]1COc2c(C3(N)CC3)c(F)cc3c(=O)c(C(=O)O)cn1c23"
  display.unit: "%"
  obs.value: 4.03
- compound: "O=NN(CCCl)C(=O)NCCCl"
  display.unit: "%"
  obs.value: -42.6
- compound: "CCN1CCN(c2cc3c(cc2F)c(=O)c(C(=O)O)cn3C2CC2)CC1"
  display.unit: "%"
  obs.value: -15.5

Give the measured inhibition of O=c1oc2c(O)c(O)cc3c(=O)oc4c(O)c(O)cc1c4c23 .
-45.8

Value lookup for inhibition; key = CC(N)C12CC3CC(CC(C3)C1)C2 (stereo not given)
-19.4

Could you tell me which inhibition is on file for CN(C)c1ccc(C(=C2C=CC(=[N+](C)C)C=C2)c2ccc(N(C)C)cc2)cc1 ?
87.3

Bench note: what inhibition did NC(=O)NO show?
-3.4

Which value of inhibition has been reported for Nc1[nH]c(=O)ncc1F in the records?
-43.6
